Assign IC50 to each entry below.
target: Metallo-beta-lactamase type 2 (Bacteria); assay: Inhibition of NDM-1 (1 to 270 residues) (unknown origin) expressed in Escherichia coli Transetta (DE3) using FC5 as fluorescence substrate preincubated for 10 mins followed by substrate addition by microplate reader analysis
Sequence (C7C422 whole entry, the tested form may be a part): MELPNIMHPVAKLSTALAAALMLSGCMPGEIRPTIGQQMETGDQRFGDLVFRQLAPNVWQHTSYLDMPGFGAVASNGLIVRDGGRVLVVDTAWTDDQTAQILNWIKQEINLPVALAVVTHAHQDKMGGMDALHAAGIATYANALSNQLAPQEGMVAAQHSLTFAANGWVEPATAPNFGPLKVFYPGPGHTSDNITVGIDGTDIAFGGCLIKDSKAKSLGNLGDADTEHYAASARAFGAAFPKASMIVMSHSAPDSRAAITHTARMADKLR

Use these answered entries as a reference point.
>>> result("COc1cccc(CCn2ccnc2C(=O)O)c1")
"> 100 µM"
>>> result("O=C(O)c1nccn1CCS(=O)(=O)c1ccccc1")
"> 100 µM"
>>> result("O=C(O)c1nccn1CCc1ccc(-c2cccc3ccccc23)cc1")
"~200 µM"

Then there is this molecule:
The measured IC50 associated with Cc1c(C(=O)O)ncn1Cc1ccccc1 reads > 100 µM
